# experimental.details: NCI Yeast Anticancer Drug Screen. Data for the rad50 strain (AID 155);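 further: 0% = growth of vehicle-only cultures of the same strain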
# measurement.conditions: S. cerevisiae rad50 strain growth inhibition; at 50.0 µM; active compounds read high
The panel holds about 79,000 compounds, 15% with a hit somewhere; the sample as a whole holds those more often.
parameter: growth inhibition (%)
Please state the figure in %; there is no need to write the unit.

Record excerpt, results attached:
CC1CC(C)(C)OB(OC(C)CC(C)(C)OB2OC(C)CC(C)(C)O2)O1 (stereo unspecified); 9.6
COC(=O)c1ccc(Cl)c(NN)c1; 90.4
COc1cccc(N=N/C(=N\NC(=O)c2cc(Br)ccc2O)c2ccc(N(CCC#N)CCC#N)cc2OC)c1; 72
CC(C)(C)CC(C)(C)c1ccc(OCCOCCSC(=N)N)cc1; 46.4
Cc1ccc(N2C(=O)C=CC2=O)cc1; 99.3

Request: growth inhibition lookup needed for COC(=O)c1ccc(=O)c2nc3/c(=C/O)c(O)cc(=O)c3[nH]c12 , thanks.
Response: 90

Request: // query: O=C1Nc2ccc(Br)cc2C1=O
Response: 96.9

Request: // query: COc1ccc(C(Cn2ccnc2)Sc2ccc(Cl)c(Cl)c2)cc1 (stereo unspecified)
Response: 92.9

Request: // query: CCSc1nc2ccccc2o1
Response: 54.4

Request: // query: Cc1cc(Br)c2nsnc2c1[N+](=O)[O-]
Response: 54.4

Request: // query: CC1(C)CCC2(C(=O)O)C(O)CC3(C)C(=CCC4C5(C)CCC(OC6OCC(O)C(O)C6OC6OCC(O)C(O)C6OC6OCC(O)C(OC7OC(CO)C(O)C(O)C7O)C6O)C(C)(C)C5CCC43C)C2C1 (stereo unspecified)
Response: 77.3

Request: // query: COc1cc(NCc2ccc3nc(N)nc(N)c3c2C)cc(OC)c1OC (tested in a mixture with another compound)
Response: 12.3

Request: // query: CCCN(CCC)C(=O)c1ccc(C)cc1
Response: 4.3

Request: // query: CN(C)CCN(C)CC(C)(C)C(=O)/C=C/c1ccc(Cl)c(Cl)c1
Response: 96.8

Request: // query: Fc1ccc(NCCS)cc1
Response: 85.2

Request: // query: Cc1cc(N/N=C/c2ccccn2)nc2ccccc12
Response: 88.7

Request: // query: O=C(/C(Cl)=N/O)c1ccc(-c2ccccc2)cc1
Response: 99.3

Request: // query: Cc1cc(C(N)=O)cc(C)c1C(=O)OCCCl
Response: 31.7

Request: // query: CCCCCCCCCCCCN1C(C)=CS/C1=C\C=C\c1scc(C)[n+]1CCCCCCCCCCCC
Response: 88
